# credit: ChEMBL document CHEMBL4257481

- Tested on: HUVEC
- testDescription: Radioprotective activity against 60Co gamma-irradiation-mediated cytotoxicity in HUVEC assessed as survival rate at 20 uM preincubated for 24 hrs followed by gamma-irradiation and measured after 4 days by MTS assay relative to control
- Assay type: functional
- conditionSummary: Homo sapiens, light or radiation study, read-out: Survival
endpointName: viability at 20 µM (%)

[[record]]
molecule = "[O-][S+](Cc1ccc(Cl)cc1)c1ccc2ccccc2c1 (stereo not given)"
endpointname = "viability at 20 µM"
unitofmeasurement = "%"
resultvalue = 57.2

[[record]]
molecule = "[O-][S+](Cc1ccc(F)cc1)c1ccc2cc(Br)ccc2c1 (stereo not given)"
endpointname = "viability at 20 µM"
unitofmeasurement = "%"
resultvalue = 77.2

[[record]]
molecule = "[O-][S+](Cc1ccc(F)cc1)c1ccc2ccccc2c1 (stereo not given)"
endpointname = "viability at 20 µM"
unitofmeasurement = "%"
resultvalue = 52

[[record]]
molecule = "O=S(=O)(Cc1ccccc1F)c1ccc2cc(Br)ccc2c1"
endpointname = "viability at 20 µM"
unitofmeasurement = "%"
resultvalue = 52.4

[[record]]
molecule = "O=C(O)c1ccc(/C=C/S(=O)(=O)Cc2ccc(Cl)cc2)cc1 [RECILISIB SODIUM]"
endpointname = "viability at 20 µM"
unitofmeasurement = "%"
resultvalue = 57.5

[[record]]
molecule = "[O-][S+](Cc1ccccc1F)c1ccc2cc(Br)ccc2c1 (stereo not given)"
endpointname = "viability at 20 µM"
unitofmeasurement = "%"
resultvalue = 51.3

[[record]]
molecule = "[O-][S+](Cc1ccc(Br)cc1)c1ccc2ccccc2c1 (stereo not given)"
endpointname = "viability at 20 µM"
unitofmeasurement = "%"
resultvalue = 59.3

[[record]]
molecule = "O=S(=O)(Cc1ccccc1Cl)c1ccc2cc(Br)ccc2c1"
endpointname = "viability at 20 µM"
unitofmeasurement = "%"
resultvalue = 56.7

[[record]]
molecule = "O=S(=O)(Cc1ccc(Br)cc1)c1ccc2cc(Br)ccc2c1"
endpointname = "viability at 20 µM"
unitofmeasurement = "%"
resultvalue = 53.1

[[record]]
molecule = "[O-][S+](Cc1cccc(Cl)c1)c1ccc2cc(Br)ccc2c1 (stereo not given)"
endpointname = "viability at 20 µM"
unitofmeasurement = "%"
resultvalue = 55.1

